B1: LINE1-full (parent)
chain: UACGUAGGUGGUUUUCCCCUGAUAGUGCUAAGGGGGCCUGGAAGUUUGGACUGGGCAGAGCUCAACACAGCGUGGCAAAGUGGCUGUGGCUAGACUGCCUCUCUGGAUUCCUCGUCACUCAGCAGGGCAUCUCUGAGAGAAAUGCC

# Variants of: B1
# protocol text: self-cleavage, relative activity (ratio to wild type); higher = more cleavage; in vitro, sequencing; the parent is a self-cleaving ribozyme
Values of self-cleavage greater than or equal to 1 map to 1; values below map to -1.

- mutant code: "C66A A107G"
  group label: -1
- mutant code: "G40U A92G"
  group label: -1
- mutant code: "G4A U115A"
  group label: 1
- mutant code: "A57C A141G"
  group label: -1
- mutant code: "A121U G126U"
  group label: 1
- mutant code: "C38U U62C"
  group label: -1
- mutant code: "G49U U134A"
  group label: 1
- mutant code: "G53A U130A"
  group label: 1
- mutant code: "U12C U47C"
  group label: 1
- mutant code: "C56U U130C"
  group label: -1
- mutant code: "U45C A64G"
  group label: -1
